Details: in DMF, 313.15 K

| GIVEN SMILES | solubility (mole fraction) |
| --- | --- |
| O=C(O)c1cc(=O)[nH]c(=O)[nH]1 | 0.0108 |

###

Conditions: in methanol, 323.15 K

| GIVEN SMILES | solubility (mole fraction) |
| --- | --- |
| O=C(O)c1cc(=O)[nH]c(=O)[nH]1 | 0.000184 |

###

Details: in DMSO, 293.15 K
RECORDED METRIC: solubility (mole fraction)

| GIVEN SMILES | TEST VALUE |
| --- | --- |
| O=C(O)c1cc(=O)[nH]c(=O)[nH]1 | 0.0326 |

###

Details: in ethyl acetate, 308.15 K

| GIVEN SMILES | solubility (mole fraction) |
| --- | --- |
| O=C(O)c1cc(=O)[nH]c(=O)[nH]1 | 1.6e-06 |

###

Settings: in ethyl acetate, 288.15 K
RECORDED METRIC: solubility (mole fraction)

| GIVEN SMILES | TEST VALUE |
| --- | --- |
| O=C(O)c1cc(=O)[nH]c(=O)[nH]1 | 1.2e-06 |

###

Details: in acetone, 278.15 K
RECORDED METRIC: solubility (mole fraction)

| GIVEN SMILES | TEST VALUE |
| --- | --- |
| O=C(O)c1cc(=O)[nH]c(=O)[nH]1 | 9.3e-06 |

###

Conditions: in n-butanol, 283.15 K

| GIVEN SMILES | solubility (mole fraction) |
| --- | --- |
| O=C(O)c1cc(=O)[nH]c(=O)[nH]1 | 1.72e-05 |

###

Conditions: in ethanol, 298.15 K
RECORDED METRIC: solubility (mole fraction)

| GIVEN SMILES | TEST VALUE |
| --- | --- |
| O=C(O)c1cc(=O)[nH]c(=O)[nH]1 | 2.57e-05 |

###

Settings: in ethanol, 323.15 K

| GIVEN SMILES | solubility (mole fraction) |
| --- | --- |
| O=C(O)c1cc(=O)[nH]c(=O)[nH]1 | 4.32e-05 |

###

Conditions: in THF, 303.15 K

| GIVEN SMILES | solubility (mole fraction) |
| --- | --- |
| O=C(O)c1cc(=O)[nH]c(=O)[nH]1 | 0.000125 |

###

Conditions: in methyl acetate, 303.15 K
RECORDED METRIC: solubility (mole fraction)

| GIVEN SMILES | RECORDED METRIC | TEST VALUE |
| --- | --- | --- |
| O=C(O)c1cc(=O)[nH]c(=O)[nH]1 | solubility (mole fraction) | 1.31e-05 |

###

Settings: in methanol, 288.15 K
RECORDED METRIC: solubility (mole fraction)

| GIVEN SMILES | RECORDED METRIC | TEST VALUE |
| --- | --- | --- |
| O=C(O)c1cc(=O)[nH]c(=O)[nH]1 | solubility (mole fraction) | 6.13e-05 |

###

Settings: in ethanol, 303.15 K
RECORDED METRIC: solubility (mole fraction)

| GIVEN SMILES | RECORDED METRIC | TEST VALUE |
| --- | --- | --- |
| O=C(O)c1cc(=O)[nH]c(=O)[nH]1 | solubility (mole fraction) | 2.86e-05 |

// provenance: BigSolDB 2.1
